For each record, write down the corresponding Microsomal Cli.
# Format: in vitro ADME, mouse
# Measurement setup: CD1, mouse

Solved cases below.
Molecule: COC(=O)c1nc(C)oc1NC(=O)c1c(F)c(F)c(F)c(F)c1F [Compound 23]
Test value: <0.5 mL/min/g
--
Molecule: CCOC(=O)c1nc(C)oc1NC(=O)c1c(F)c(F)c(F)c(F)c1F [Compound 24]
Test value: <0.5 mL/min/g
--
Molecule: CCOC(=O)c1nc(N(C)C)oc1NC(=O)c1c(F)c(F)c(F)c(F)c1F [Compound 32]
Test value: 1.4 mL/min/g

I need Microsomal Cli for every entry listed below, if you could help.
1. CN(C)c1ccnc2oc(-c3c(F)c(F)c(F)c(F)c3F)nc12 [Compound 13]
2. CN(C)c1ncnc2c1nc(-c1c(F)c(F)c(F)c(F)c1F)n2C [Compound 7]
3. CCOC(=O)c1nc(C(C)C)oc1NC(=O)c1c(F)c(F)c(F)c(F)c1F [Compound 31]
4. CCOC(=O)c1nc(C)oc1NCc1c(F)c(F)c(F)c(F)c1F [Compound 29]
5. CNc1ncnc2oc(-c3c(F)c(F)c(F)c(F)c3F)nc12 [Compound 12, CNc1ncnc2oc(nc12)-c1c(c(c(c(c1F)F)F)F)F]
6. Cc1nc(C(=O)N(C)C)c(NC(=O)c2c(F)c(F)c(F)c(F)c2F)o1 [Compound 40]
7. Cc1nc(C(=O)O)c(NC(=O)c2c(F)c(F)c(F)c(F)c2F)o1 [Compound 38]
8. CCOC(=O)c1nc(C)oc1NC(=O)c1c(F)cc(F)c(F)c1F [Compound 27]

result:
>50 mL/min/g
8.4 mL/min/g
3.3 mL/min/g
32 mL/min/g
<0.5 mL/min/g
0.846 mL/min/g
<0.5 mL/min/g
0.8 mL/min/g

Return reported Microsomal Cli values for all items listed beneath this line.
1. Cc1noc(-c2nc(C)oc2NC(=O)c2c(F)c(F)c(F)c(F)c2F)n1 [Compound 43]
2. CN(C)c1ncnc2sc(-c3ccccc3)nc12 [Compound 3, CN(C)c1ncnc2sc(nc12)-c1ccccc1]
3. Cc1nc(C(=O)OC(C)(C)C)c(NC(=O)c2c(F)c(F)c(F)c(F)c2F)o1 [Compound 36]
4. Cc1ncc(NC(=O)c2c(F)c(F)c(F)c(F)c2F)o1 [Compound 37, Cc1ncc(o1)NC(=O)c1c(c(c(c(c1F)F)F)F)F]
5. CN(C)c1ncnc2sc(-c3ccc(F)cc3)nc12 [Compound 5, CN(C)c1ncnc2sc(nc12)-c1ccc(cc1)F]
6. CN(C)c1nccc2oc(-c3c(F)c(F)c(F)c(F)c3F)nc12 [Compound 14]

result:
1: <0.5 mL/min/g; 2: >50 mL/min/g; 3: 1.1 mL/min/g; 4: <0.5 mL/min/g; 5: >50 mL/min/g; 6: >50 mL/min/g

###

# Experiment notes: in vivo
# Measurement setup: C57BL/6J, mouse, po
Measured parameter: AUC(0-t) (µg·h/mL)
Give bare numbers, in µg·h/mL.

Lab note: Cc1noc(-c2nc(C)oc2NC(=O)c2c(F)c(F)c(F)c(F)c2F)n1 gave AUC(0-t) of 167

###

I'd appreciate it if you could supply Mouse micro Cl values for the items below.
# Assay type: in vitro ADME, mouse
# Measurement setup: mouse, microsomes

Could you report Mouse micro Cl for every entry in the following list?
1. Cc1noc(-c2nc(C)oc2NC(=O)c2c(F)c(F)c(F)c(F)c2F)n1 [Compound 43]
2. CCOC(=O)c1nc(C)oc1NS(=O)(=O)c1c(F)c(F)c(F)c(F)c1F [Compound 30]
3. CCN(CC)c1ncnc2sc(-c3c(F)c(F)c(F)c(F)c3F)nc12 [Compound 8]
4. CN(C)c1ncnc2oc(-c3c(F)c(F)c(F)c(F)c3F)nc12 [Compound 6]
5. CN(C)c1ncnc2sc(-c3cc(F)c(F)c(F)c3)nc12 [Compound 4, CN(C)c1ncnc2sc(nc12)-c1cc(c(c(c1)F)F)F]
6. Fc1c(F)c(F)c(-c2nc3cncnc3s2)c(F)c1F [Compound 11, Fc1c(c(c(c(c1F)F)-c1nc2cncnc2s1)F)F]
7. CN(C)c1ncnc2c1nc(-c1c(F)c(F)c(F)c(F)c1F)n2C [Compound 7]
8. CCOC(=O)c1nc(CN(C)C)oc1NC(=O)c1c(F)c(F)c(F)c(F)c1F [Compound 35]

result:
<0.5 mL/min/g
0.94 mLmin/g
26 mLmin/g
>50 mLmin/g
>50 mLmin/g
18 mLmin/g
8.4 mLmin/g
<0.5 mL/min/g

###

# Experiment notes: in vivo
# Measurement setup: C57BL/6J, mouse, po
Measured parameter: Cmax
Please answer using a numeric value trailed by its unit.

// field: Cmax; key: Cc1noc(-c2nc(C)oc2NC(=O)c2c(F)c(F)c(F)c(F)c2F)n1 [Compound 43] ; value = 30000 ng/mL

###

# Tested on: M. tuberculosis (H37Rv)
# Experiment notes: microbe, parasite or virus in culture
# Format: cell-based, Mycobacterium tuberculosis
# Measurement setup: Mycobacterium tuberculosis, H37RV; read-out: Wk2_ 7H9/DPPC/ cholesterol/BSA/ Tyloxapol MIC
Measured parameter: log10(MIC) (log10 of the value in µM)
Scale type: logarithmic (base 10). Underlying MIC unit: µM.

Structure smiles: COC(=O)c1c(C)noc1NC(=O)c1c(F)c(F)c(F)c(F)c1F
Measured parameter: log10(MIC)
Test value: 0.49

Structure smiles: Cc1nnc(-c2nc(C)oc2NC(=O)c2c(F)c(F)c(F)c(F)c2F)o1
Measured parameter: log10(MIC)
Test value: 0.80

Structure smiles: CCOC(=O)c1nc(-c2ccccc2)oc1NC(=O)c1c(F)c(F)c(F)c(F)c1F
Measured parameter: log10(MIC)
Test value: 0.67

Structure smiles: CCOC(=O)c1nc(C)oc1NC(=O)c1c(F)cc(F)c(F)c1F
Measured parameter: log10(MIC)
Test value: 0.67

Structure smiles: Cc1noc(-c2nc(C)oc2NC(=O)c2c(F)c(F)c(F)c(F)c2F)n1
Measured parameter: log10(MIC)
Test value: 0.26

Your task in this section: give log10(MIC) for each listed record.
1. Cc1nc(C(=O)N(C)C)c(NC(=O)c2c(F)c(F)c(F)c(F)c2F)o1
2. COC(=O)c1nc(C)oc1NC(=O)c1c(F)c(F)c(F)c(F)c1F
3. Cc1nc(-c2ncco2)c(NC(=O)c2c(F)c(F)c(F)c(F)c2F)o1
4. Fc1c(F)c(F)c(-c2nc3c(N4CCOCC4)ncnc3o2)c(F)c1F
5. CC(=O)c1nc(C)oc1NC(=O)c1c(F)c(F)c(F)c(F)c1F

result:
1.28
0.08
0.08
0.08
0.49

Record CCOC(=O)c1nc(C)oc1NC(=O)c1cc(F)c(F)c(F)c1F , field log10(MIC): -0.22

###

What Mouse Heps Cl was measured for each of the following?
# Format: in vitro ADME, mouse
# Measurement setup: mouse, hepatocytes

Molecule: CCOC(=O)c1nc(C)oc1NC(=O)c1cc(F)c(F)c(F)c1F [Compound 25]
Mouse Heps Cl: 17 mLmin/g

Could you tell me Mouse Heps Cl for each of these molecules? They are listed below.
1. CC(=O)c1nc(C)oc1NC(=O)c1c(F)c(F)c(F)c(F)c1F [Compound 39]
2. CN(C)c1nccc2oc(-c3c(F)c(F)c(F)c(F)c3F)nc12 [Compound 14]
3. CN(C)c1ccnc2oc(-c3c(F)c(F)c(F)c(F)c3F)nc12 [Compound 13]

result:
1. 8.6 mL/min/g
2. >50 mLmin/g
3. >50 mLmin/g

###

I'd appreciate it if you could supply Mouse micro Cl values for the items below.
# Format: in vitro ADME, mouse
# Measurement setup: mouse, microsomes

Take each entry in turn and give its Mouse micro Cl.
1. Cc1nc(C(=O)N(C)C)c(NC(=O)c2c(F)c(F)c(F)c(F)c2F)o1 [Compound 40]
2. CN(C)c1nccc2oc(-c3c(F)c(F)c(F)c(F)c3F)nc12 [Compound 14]
3. COC(=O)c1nc(C)oc1NC(=O)c1c(F)c(F)c(F)c(F)c1F [Compound 23]
4. COC(=O)c1c(C)noc1NC(=O)c1c(F)c(F)c(F)c(F)c1F [Compound 22]
5. CCOC(=O)c1nc(C)oc1NCc1c(F)c(F)c(F)c(F)c1F [Compound 29]
6. Fc1c(F)c(F)c(-c2nc3c(N4CCOCC4)ncnc3s2)c(F)c1F [Compound 9]
7. CCOC(=O)c1nc(C(C)C)oc1NC(=O)c1c(F)c(F)c(F)c(F)c1F [Compound 31]

result:
1. 0.85 mL/min/g
2. >50 mLmin/g
3. <0.5 mLmin/g
4. 3.8 mLmin/g
5. 32 mLmin/g
6. 43 mLmin/g
7. 3.3 mL/min/g

Return reported Mouse micro Cl values for all items listed beneath this line.
1. CC(=O)c1nc(C)oc1NC(=O)c1c(F)c(F)c(F)c(F)c1F [Compound 39]
2. CCOC(=O)c1nc(-c2ccccc2)oc1NC(=O)c1c(F)c(F)c(F)c(F)c1F [Compound 34]

result:
<0.5 mL/min/g
6.9 mL/min/g
